Test system: WI-38
measurement protocol: Cytotoxicity against human WI38 cells by MTT assay
Format: cell-based
Measured IC50 values are reported for all entries that follow.
Please give a number only; it is taken to be in µg/mL.

Please review the following examples before continuing.
>>> value_observed("C=C[C@H]1CN2CC[C@H]1C[C@H]2[C@@H](O)c1cc(CC[C@@H](C)[C@H]2CC[C@H]3[C@@H]4[C@H](OC(C)=O)C[C@@H]5C[C@H](OC(C)=O)CC[C@]5(C)[C@H]4CC[C@]23C)nc2ccccc12")
1.93
>>> value_observed("C=C[C@H]1CN2CC[C@H]1C[C@H]2[C@H](O)c1cc(CC[C@@H](C)[C@H]2CC[C@H]3[C@@H]4CC[C@@H]5C[C@H](OC(C)=O)CC[C@]5(C)[C@H]4CC[C@]23C)nc2ccccc12")
5.58
>>> value_observed("C=C[C@H]1CN2CC[C@H]1C[C@H]2[C@@H](O)c1cc(CC[C@@H](C)[C@H]2CC[C@H]3[C@@H]4CC[C@@H]5C[C@H](OC(C)=O)CC[C@]5(C)[C@H]4CC[C@]23C)nc2ccc(OC)cc12")
7.79

API: the following record is the query input.
-- ask Entry C=C[C@H]1CN2CC[C@H]1C[C@H]2[C@@H](O)c1cc(CC[C@@H](C)[C@H]2CC[C@H]3[C@@H]4[C@H](O)C[C@@H]5C[C@H](O)CC[C@]5(C)[C@H]4CC[C@]23C)nc2ccc(OC)cc12 , system WI-38: what IC50 was measured?
-- reply 1.95
